Tested on: MDR1
Assay: MDCK permeability and efflux assay
Type: in vitro ADME
Conditions: dog, MDCK-MDR1, basolateral-to-apical, MDR1-transfected MDCK cells
Description: Monolayer systems consist of a tight cell layer grown on a porous support to separate two fluid compartments. […] In monolayer assays, the flux of a compound through the monolayer of cells is measured. The unidirectional flux of the compound of interest is determined by applying it to either the apical or to the basolateral side of the cell layer and monitoring the time resolved redistribution of it between the two compartments. […]
Experimental endpoint: Papp B→A (×10⁻⁶ cm/s)
All answers are understood in ×10⁻⁶ cm/s, so give the number only.

In: Request: Papp B→A, test system MDR1, entry CC1(F)CN(C(=O)Cn2cnc3c(c(-c4ccc(F)c(Cl)c4)cn3C3CC3)c2=O)C1
Out: 32
